- Test system: SJ-N-KP
- assaySummary: In vitro cytotoxicity assay (MTT), neuroblastoma SJ-N-KP
- Assay type: cell-based, human
- measurementSetup: 72 hrs exposure, medium with 10% inactivated FBS, hydrochloride
Counter-ions that a name gives are not always drawn.
resultType: EC50 (µM)

compound | measurementUnits | observed
C[C@H](N)C(=O)OCc1cc(O)c2c(c1)C(=O)c1cccc(O)c1C2=O [Ex. 11: ALA, ala-aloe-emodin hydrochloride] | µM | 200
